# EXPERIMENTAL PROTOCOL: Agonist activity at Escherichia coli DH5alpha (pJN105L + pSC11) LasR after 8 hrs by beta-galactosidase reporter gene assay relative to OdDHL
# Format: functional, Escherichia coli DH5[alpha]
REPORTED ENDPOINT: pEC50
API: returns pEC50 as number; meaning -log10 of concentration in mol/L.

Worked cases, answers included:
{"columns": ["SMILES RECORD", "ENDPOINT VALUE"],
 "data": [
  ["O=C(CCc1cc2ccccc2[nH]1)N[C@H]1CCSC1=O", 5.74],
  ["CCCCCCCCCC(=O)CC(=O)N[C@H]1CCSC1=O", 7.04]
]}

Next item in the queue.
Query :: Quick one: pEC50 of `CCCCCCCCCCCC(=O)N[C@H]1CCSC1=O` ?
Result :: 5.72
